Quick list: inhibition per entry.
experiment.summary: growth inhibition of CRL1545 osteosarcoma cells, cell-based, cisplatin and BGB IC20 combos (AID 1671464);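 note: cells exposed to compound for 96 hours before readout; 0% = vehicle DMSO and 100% = high DMSO killing control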
assay.conditions: measured here: with cisplatin IC20 combination, at 0.5 µM, stronger effect = higher value
Give a bare numeral; the unit % is implied.

These solved cases illustrate the format of a correct answer.
> print(dat)
                                  molecule   parameter  result.value
1  O=c1c(O)c(-c2ccc(O)c(O)c2)oc2cc(O)ccc12  inhibition         -1.43
2      CCn1nc(C(=O)O)c(=O)c2cc3c(cc21)OCO3  inhibition         -38.6
3                 Nc1ccc2cc3ccc(N)cc3nc2c1  inhibition           -43
4       Cc1ccc2nc(N)[nH]c(=O)c2c1Sc1ccncc1  inhibition         -24.4

Q) Please give the documented inhibition of O=c1cc[nH]c(=O)[nH]1
A) -82.8

Q) Return value of inhibition for input CN1C[C@@H]2C[C@H]1CN2c1cc2c(cc1F)c(=O)c(C(=O)O)cn2C1CC1 , no commentary.
A) -75.1

Q) Specify reported inhibition for the molecule shown: O=c1[nH]c(=O)n([C@H]2C[C@H](O)[C@@H](CO)O2)cc1C(F)(F)F
A) -37.1

Q) Output measured inhibition for this item: C[C@@H](CN1CC(=O)NC(=O)C1)N1CC(=O)NC(=O)C1
A) -51.8

Q) Could you please provide reported inhibition for CN1CCN(c2c(F)cc3c(=O)c(C(=O)O)cn(CCF)c3c2F)CC1 ? Thanks!
A) 1.43

Q) Using the record for N=C(N=C(N)N)N1CCOCC1 , state its measured inhibition.
A) 11.3

Q) Output inhibition of O=c1[nH]c(=O)n([C@H]2C[C@H](O)[C@@H](CO)O2)cc1Br
A) 11.6

Q) Give the reported inhibition for this molecule. CN(N=O)C(=O)NC1C(O)OC(CO)C(O)C1O (configuration not stated)
A) 12.7
